The reported measurements were obtained from patent US10100285B2.

# System: late passage prostate epithelial cells
# Type: cell-based
# Experimental context: KSFM supplemented with A83-01 plus compound at 5 μM, 1 μM, 0.2 μM, 5 days
Structures can show the parent of a compound that is named as a salt.
Assay endpoint: cell proliferation when used together with A83-01

{"Compound": "NC(=O)c1ccc(-c2nc(-c3ccc4c(c3)OCO4)c(-c3ccccn3)[nH]2)cc1 [SB 431542]", "Measured target": "late passage prostate epithelial cells", "Measured": "little extra increase"}
{"Compound": "Cc1cccc(-c2n[nH]cc2-c2ccc3ncccc3n2)n1 [RepSox]", "Measured target": "late passage prostate epithelial cells", "Measured": "little extra increase"}
{"Compound": "CN(C)CCOc1cc(-c2cn[nH]c2)ccc1NC(=O)C1COc2ccccc2O1 (stereo not drawn) [SR 3677, di hydrochloride]", "Measured target": "late passage prostate epithelial cells", "Measured": "synergistic effect"}
{"Compound": "CC1=C(C(=O)Nc2cc3cn[nH]c3cc2F)C(c2ccc(C(F)(F)F)cc2)CC(=O)N1 (stereo not drawn) [GSK 429286]", "Measured target": "late passage prostate epithelial cells", "Measured": "synergistic effect"}
{"Compound": "O=C(NC1CCOCC1)c1ccc(-c2cc(-c3c[nH]nc3-c3ccccn3)ccn2)cc1 [GW 788388]", "Measured target": "late passage prostate epithelial cells", "Measured": "little extra increase"}
{"Compound": "O=C(NCc1ccccc1)c1csc(Nc2ccncn2)n1 [Thiazovivin]", "Measured target": "late passage prostate epithelial cells", "Measured": "synergistic effect"}
